In this section we review reported surviving fraction values for a set of molecules.
system: E28 (patient-derived glioblastoma stem cells of classical subtype); assay: surviving fraction (nuclei count normalised to DMSO); higher = more cells surviving (less toxic); conditions: 3000 nM; exposure time: 72 h
Counter-ions that a name gives are not always drawn.

>  <MOLECULE>
CC(C)C[C@H](NC(=O)[C@H](Cc1ccccc1)C[C@@H](O)[C@H](Cc1ccccc1)NC(=O)OC(C)(C)C)C(=O)N[C@@H](Cc1ccccc1)C(N)=O

>  <surviving fraction>
0.834

$$$$
>  <MOLECULE>
Nc1ccn([C@@H]2O[C@H](CO)[C@@H](O)[C@@H]2O)c(=O)n1

>  <surviving fraction>
0.333

$$$$
>  <MOLECULE>
OC(c1cc(C(F)(F)F)nc2c(C(F)(F)F)cccc12)C1CCCCN1 (centres undefined) [Mefloquine hydrochloride]

>  <surviving fraction>
1.12

$$$$
>  <MOLECULE>
C[C@@H]1CN([C@H]2CC[C@](C#N)(c3ccc(F)cc3)CC2)CC[C@]1(C(=O)O)c1ccccc1 [Levocabastine hydrochloride]

>  <surviving fraction>
0.949

$$$$

* * *

// values below are reported phenotypic distance
test system: E13 (patient-derived glioblastoma stem cells of classical subtype); assay: phenotypic distance (Euclidean, principal components) from DMSO controls (arbitrary units); higher = stronger morphological change; details: 12.3 nM; exposure time: 72 h;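 also: cell Painting imaging in 384-well plates, CellProfiler features reduced to at least 20 principal components, Euclidean distance versus same-plate DMSO vehicle wells (0.1% v/v), median over six images per well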
Where a name gives a salt, the structure may show the parent alone.

>  <COMPOUND>
CCOC(=O)C1=C(C)NC(C)=C(C(=O)OCC)C1c1c(F)c(F)c(F)c(F)c1F

>  <phenotypic distance>
0.892

$$$$
>  <COMPOUND>
COc1cc(/C=C/C(=O)N2CCC=CC2=O)cc(OC)c1OC

>  <phenotypic distance>
0.675

$$$$
>  <COMPOUND>
N=C(N)NCc1cccc(I)c1 [Iobenguane sulfate]

>  <phenotypic distance>
0.965

$$$$
>  <COMPOUND>
CC1=C(/C=C/C(C)=C/C=C/C(C)=C/C(=O)Nc2ccc(O)cc2)C(C)(C)CCC1 [Retinoic acid p-hydroxyanilide]

>  <phenotypic distance>
0.333

$$$$

* * *

Quick reference for surviving fraction among some compounds
test system: E28; assay: surviving fraction (nuclei count normalised to DMSO); higher = more cells surviving (less toxic); conditions: 4.1 nM; exposure time: 72 h

>  <COMPOUND>
OCCN1CCN(CCCN2c3ccccc3Sc3ccc(Cl)cc32)CC1

>  <SYSTEM NAME>
E28

>  <surviving fraction>
1.09

$$$$
>  <COMPOUND>
CC1CNc2c(cccc2S(=O)(=O)N[C@@H](CCCNC(=N)N)C(=O)N2CC[C@@H](C)C[C@@H]2C(=O)O)C1 (some centres not stated)

>  <SYSTEM NAME>
E28

>  <surviving fraction>
0.975

$$$$
>  <COMPOUND>
Cc1ccc(/C=N/NC(=O)c2n[nH]c3c2CCCC3)cc1

>  <SYSTEM NAME>
E28

>  <surviving fraction>
0.954

$$$$
>  <COMPOUND>
Clc1ccc(COC(Cn2ccnc2)c2ccc(Cl)cc2Cl)c(Cl)c1 (configuration not stated)

>  <SYSTEM NAME>
E28

>  <surviving fraction>
1.09

$$$$
>  <COMPOUND>
COc1cccc2c1C(=O)c1c(O)c3c(c(O)c1C2=O)C[C@@](O)(C(=O)CO)C[C@@H]3O[C@H]1C[C@H](N)[C@H](O[C@@H]2CCCCO2)[C@H](C)O1

>  <SYSTEM NAME>
E28

>  <surviving fraction>
0.322

$$$$
>  <COMPOUND>
C[C@H]1O[C@@H](O[C@H]2[C@@H](O)C[C@H](O[C@H]3[C@@H](O)C[C@H](O[C@H]4CC[C@@]5(C)[C@H](CC[C@@H]6[C@@H]5C[C@@H](O)[C@]5(C)[C@@H](C7=CC(=O)OC7)CC[C@]65O)C4)O[C@@H]3C)O[C@@H]2C)C[C@H](O)[C@@H]1O

>  <SYSTEM NAME>
E28

>  <surviving fraction>
0.839

$$$$
>  <COMPOUND>
CC(C)C(=O)OCC(=O)[C@@]12O[C@H](C3CCCCC3)O[C@@H]1C[C@H]1[C@@H]3CCC4=CC(=O)C=C[C@]4(C)[C@H]3[C@@H](O)C[C@@]12C [Ciclesonide]

>  <SYSTEM NAME>
E28;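 also: nuclei counted by high-content imaging of Hoechst-stained cells in laminin-coated 384-well plates, relative to 0.1% DMSO vehicle wells, with staurosporine as cell-death control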

>  <surviving fraction>
1.11

$$$$
